Values were extracted from patent EP1196433B1.

target: αvβ6 Rezeptor (Homo sapiens, UniProt P06756+P18564)
Construct: Die Immobilisierung von löslichem αvβ6 Rezeptor auf Microtiterplatten
Sequence (P06756 31-992 limits assumed): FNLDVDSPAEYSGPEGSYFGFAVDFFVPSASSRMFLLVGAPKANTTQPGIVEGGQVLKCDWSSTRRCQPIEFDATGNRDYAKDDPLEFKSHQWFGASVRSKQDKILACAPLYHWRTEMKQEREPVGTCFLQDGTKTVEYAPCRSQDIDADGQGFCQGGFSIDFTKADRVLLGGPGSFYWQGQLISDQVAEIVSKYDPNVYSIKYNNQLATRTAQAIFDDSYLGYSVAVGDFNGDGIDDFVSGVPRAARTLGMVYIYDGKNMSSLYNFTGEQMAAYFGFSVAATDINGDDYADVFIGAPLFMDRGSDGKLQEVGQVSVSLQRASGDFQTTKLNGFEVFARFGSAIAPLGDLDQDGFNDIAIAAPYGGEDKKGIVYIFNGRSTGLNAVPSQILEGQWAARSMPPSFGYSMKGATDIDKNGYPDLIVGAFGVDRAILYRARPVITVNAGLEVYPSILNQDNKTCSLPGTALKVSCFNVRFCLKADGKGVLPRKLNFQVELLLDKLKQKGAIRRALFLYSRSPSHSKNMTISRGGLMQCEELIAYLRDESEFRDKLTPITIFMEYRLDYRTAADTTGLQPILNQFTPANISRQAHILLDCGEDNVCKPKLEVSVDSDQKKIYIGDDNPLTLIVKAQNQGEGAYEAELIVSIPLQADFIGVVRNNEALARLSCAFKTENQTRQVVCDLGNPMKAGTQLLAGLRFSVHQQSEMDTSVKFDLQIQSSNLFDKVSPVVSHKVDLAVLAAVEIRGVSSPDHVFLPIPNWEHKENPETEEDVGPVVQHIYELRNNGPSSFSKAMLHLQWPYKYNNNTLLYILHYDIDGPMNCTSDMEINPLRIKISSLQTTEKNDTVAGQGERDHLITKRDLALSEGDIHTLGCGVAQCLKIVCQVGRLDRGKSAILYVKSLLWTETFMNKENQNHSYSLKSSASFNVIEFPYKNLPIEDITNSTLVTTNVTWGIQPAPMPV
Sequence (P18564 22-709 limits assumed): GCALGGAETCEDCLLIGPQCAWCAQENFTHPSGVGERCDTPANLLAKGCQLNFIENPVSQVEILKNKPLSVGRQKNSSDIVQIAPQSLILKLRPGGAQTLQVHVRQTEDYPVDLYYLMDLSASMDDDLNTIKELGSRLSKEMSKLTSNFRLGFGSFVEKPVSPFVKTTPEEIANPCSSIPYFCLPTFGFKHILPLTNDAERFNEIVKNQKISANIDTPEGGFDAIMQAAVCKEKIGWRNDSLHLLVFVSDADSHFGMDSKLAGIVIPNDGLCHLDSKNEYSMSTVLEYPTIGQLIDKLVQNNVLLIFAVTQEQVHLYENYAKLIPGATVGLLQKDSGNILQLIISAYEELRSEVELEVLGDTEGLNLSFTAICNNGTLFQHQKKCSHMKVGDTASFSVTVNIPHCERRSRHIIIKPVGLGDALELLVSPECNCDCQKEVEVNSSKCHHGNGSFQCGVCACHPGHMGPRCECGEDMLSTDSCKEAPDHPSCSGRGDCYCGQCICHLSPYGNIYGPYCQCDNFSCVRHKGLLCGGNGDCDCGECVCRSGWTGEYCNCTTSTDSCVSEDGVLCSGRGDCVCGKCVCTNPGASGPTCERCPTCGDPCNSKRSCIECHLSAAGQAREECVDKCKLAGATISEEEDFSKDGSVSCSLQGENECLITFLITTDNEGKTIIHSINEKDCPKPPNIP
experiment description: αvβ6 / fibronectin receptor binding test (competition of peptide with biotinylated fibronectin on immobilised integrin, ELISA read-out)
condition summary: standard Ac-RTDLDSLR-NH2; biotinylated fibronectin 2 µg/ml; Q values of repeated experiments averaged
Non-standard residues stand in square brackets, D forms with d. Residues, ends and D or L forms follow the SMILES beside them.
attribute measured: Q-Wert = IC50 Testpeptid / IC50 EMD 271293

- compound: "CC(C)C[C@@H]1NC(=O)[C@H](C)NC(=O)[C@@H](CC(=O)O)NC(=O)[C@H](CC(C)C)NC(=O)[C@H](CC(=O)O)NC(=O)CNC(=O)[C@H](CCCNC(=N)N)NC(=O)CNC(=O)CNC(=O)CNC(=O)CNC(=O)CNC(=O)[C@H](CCCNC(=N)N)NC1=O [compound 272962] (cyclo(RGDL[dD]ALRGGGGG))"
  target: "αvβ6 Rezeptor (Homo sapiens, UniProt P06756+P18564)"
  result: "0,046"
- compound: "CC(C)C[C@@H]1NC(=O)[C@H](C)NC(=O)[C@@H](CC(=O)O)NC(=O)[C@H](CC(C)C)NC(=O)[C@H](CC(=O)O)NC(=O)CNC(=O)[C@H](CCCNC(=N)N)NC(=O)CNC(=O)CNC(=O)CNC(=O)CNC(=O)[C@H](CCCNC(=N)N)NC1=O [compound 272961] (cyclo(RGDL[dD]ALRGGGG))"
  target: "αvβ6 Rezeptor (Homo sapiens, UniProt P06756+P18564)"
  result: "0,033"
- compound: "CC(C)C[C@@H]1NC(=O)[C@H](C)NC(=O)[C@@H](CC(=O)O)NC(=O)[C@H](CC(C)C)NC(=O)[C@H](CC(=O)O)NC(=O)CNC(=O)[C@H](CCCNC(=N)N)NC(=O)CNC(=O)[C@H](CCCNC(=N)N)NC1=O [compound 271591] (cyclo(RGDL[dD]ALRG))"
  target: "αvβ6 Rezeptor (Homo sapiens, UniProt P06756+P18564)"
  result: "2,1"
- compound: "CC(C)C[C@@H]1NC(=O)[C@H](C)NC(=O)[C@@H](CC(=O)O)NC(=O)[C@H](CC(C)C)NC(=O)[C@H](CC(=O)O)NC(=O)CNC(=O)[C@H](CCCNC(=N)N)NC(=O)CNC(=O)CNC(=O)CNC(=O)CNC(=O)CNC(=O)CNC(=O)[C@H](CCCNC(=N)N)NC1=O [compound 271594] (cyclo(RGDL[dD]ALRGGGGGG))"
  target: "αvβ6 Rezeptor (Homo sapiens, UniProt P06756+P18564)"
  result: "0,05"
- compound: "CC(=O)N[C@@H](CCCNC(=N)N)C(=O)N[C@H](C(=O)N[C@@H](CC(=O)O)C(=O)N[C@@H](CC(C)C)C(=O)N[C@@H](CC(=O)O)C(=O)N[C@@H](CO)C(=O)N[C@@H](CC(C)C)C(=O)N[C@@H](CCCNC(=N)N)C(N)=O)[C@@H](C)O [compound 271293] (Ac-RTDLDSLR-NH2)"
  target: "αvβ6 Rezeptor (Homo sapiens, UniProt P06756+P18564)"
  result: "1,00"
- compound: "CC(C)C[C@@H]1NC(=O)[C@H](C)NC(=O)[C@@H](CC(=O)O)NC(=O)[C@H](CC(C)C)NC(=O)[C@H](CC(=O)O)NC(=O)CNC(=O)[C@H](CCCNC(=N)N)NC(=O)CNC(=O)CNC(=O)[C@H](CCCNC(=N)N)NC1=O [compound 271592] (cyclo(RGDL[dD]ALRGG))"
  target: "αvβ6 Rezeptor (Homo sapiens, UniProt P06756+P18564)"
  result: "0,05"
- compound: "CC(C)C[C@@H]1NC(=O)[C@H](C)NC(=O)[C@@H](CC(=O)O)NC(=O)[C@H](CC(C)C)NC(=O)[C@H](CC(=O)O)NC(=O)CNC(=O)[C@H](CCCNC(=N)N)NC(=O)CNC(=O)CNC(=O)CNC(=O)[C@H](CCCNC(=N)N)NC1=O [compound 271593] (cyclo(RGDL[dD]ALRGGG))"
  target: "αvβ6 Rezeptor (Homo sapiens, UniProt P06756+P18564)"
  result: "0,03"
